# System: T98 cells
# measurementNotes: Cell viability assay (PrestoBlue, 5 d) in T98 glioma cells
# Type: cell-based
# assaySetup: library screen, 5 d treatment, mean of three independent experiments in triplicates, read-out: EC50 T98 ± SEM
pEC50: −log10 of the molar value.
pEC50 for assorted molecules

[
  {
    "molecule": "COc1cc(-c2nn(CCN3CCC(N(C)C)CC3)c3ncnc(N)c23)ccc1NC(=O)NC(C)(C)C [eCF537]",
    "boundType": "=",
    "pEC50": 4.75
  },
  {
    "molecule": "Nc1ncnc2c1c(-c1ccoc1)nn2C1CCCC1",
    "boundType": "=",
    "pEC50": 4.81
  },
  {
    "molecule": "CN(C)C1CCN(CCn2nc(-c3ccc(NC(=O)OC(C)(C)C)cc3)c3c(N)ncnc32)CC1",
    "boundType": "=",
    "pEC50": 4.94
  },
  {
    "molecule": "CN(C)C1CCN(CCn2nc(-c3ccc(NC(=O)OC(C)(C)C)nc3)c3c(N)ncnc32)CC1",
    "boundType": "<",
    "pEC50": 4.52
  },
  {
    "molecule": "Cc1ccc(-c2nn(CCN3CCC(C)CC3)c3ncnc(N)c23)cc1",
    "boundType": "<",
    "pEC50": 4.52
  },
  {
    "molecule": "CNc1ncc2c(-c3ccc(F)cc3)nn(CC3OCCO3)c2n1",
    "boundType": "<",
    "pEC50": 4.52
  },
  {
    "molecule": "Cc1ccc(-c2nn(CCN3CCN(CCO)CC3)c3ncnc(N)c23)cc1",
    "boundType": "<",
    "pEC50": 4.52
  },
  {
    "molecule": "CN(C)C1CCN(CCn2nc(-c3ccc(CC(=O)O)cc3)c3c(N)ncnc32)CC1",
    "boundType": "<",
    "pEC50": 4.52
  },
  {
    "molecule": "CN(C)CC1CCN(CCn2nc(C#Cc3ccccc3)c3c(N)ncnc32)CC1",
    "boundType": "=",
    "pEC50": 4.86
  },
  {
    "molecule": "CN(C)C1CCN(CCn2nc(-c3ccc4c(ccn4C(=O)OC(C)(C)C)c3)c3c(N)ncnc32)CC1",
    "boundType": "=",
    "pEC50": 5.16
  },
  {
    "molecule": "CNc1ncc2c(-c3ccc(OC)cc3)nn(CC3CCCC3)c2n1",
    "boundType": "=",
    "pEC50": 5.20
  },
  {
    "molecule": "CNc1ncc2c(-c3ccc(N4CCN(C(=O)C(C)(C)C)CC4)nc3)nn(CC3CCCC3)c2n1",
    "boundType": "=",
    "pEC50": 4.99
  },
  {
    "molecule": "CNc1ncc2c(-c3ccc(N4CCNCC4)nc3)nn(CC3OCCO3)c2n1",
    "boundType": "=",
    "pEC50": 5.03
  },
  {
    "molecule": "CCOC(Cn1nc(-c2ccc3ncccc3c2)c2c(N)ncnc21)OCC",
    "boundType": "<",
    "pEC50": 4.52
  },
  {
    "molecule": "Nc1ncnc2c1c(-c1cnc3[nH]ccc3c1)nn2CC1OCCO1",
    "boundType": "=",
    "pEC50": 4.88
  },
  {
    "molecule": "COc1cc(-c2nn(CCN3CCC(N(C)C)CC3)c3ncnc(N)c23)ccc1NCc1ccccc1",
    "boundType": "<",
    "pEC50": 4.52
  },
  {
    "molecule": "CNc1ncc2c(-c3ccc(N4CCNCC4)nc3)nn(Cc3cn(C4CCCCC4O)nn3)c2n1 (stereo not drawn)",
    "boundType": "=",
    "pEC50": 4.62
  },
  {
    "molecule": "Nc1ncnc2c1c(-c1ccc(C(F)(F)F)cc1)nn2CC1CCCC1",
    "boundType": "=",
    "pEC50": 4.73
  }
]

###

# System: T98 cells
# measurementNotes: Cell viability assay (PrestoBlue, 5 d) in T98 glioma cells
# Format: cell-based
# assaySetup: library screen, 5 d treatment, mean of three independent experiments in triplicates, read-out: EC50 T98 ± SEM
Lab note - cut at 20 µM for EC50: true if strictly below, false if not.

[
  {
    "compound": "CN(C)C1CCN(CCn2nc(-c3ccc(NC(=O)OC(C)(C)C)c(O)c3)c3c(N)ncnc32)CC1 [eCF562]",
    "answerLabel": "false"
  },
  {
    "compound": "CNc1ncc2c(-c3cccc(C(N)=O)c3)nn(CC3CCCC3)c2n1 [eSM108]",
    "answerLabel": "false"
  },
  {
    "compound": "CNc1ncc2c(-c3ccc(N4CCN(C)CC4)cc3)nn(CC3CCCC3)c2n1 [eSM156]",
    "answerLabel": "true"
  },
  {
    "compound": "CCOC(Cn1nc(-c2cccc(NC(=O)OC(C)(C)C)c2)c2c(N)ncnc21)OCC [eCF207]",
    "answerLabel": "false"
  },
  {
    "compound": "COc1cc(-c2nn(CCN3CCC(N(C)C)CC3)c3ncnc(N)c23)ccc1NC(=O)OCc1ccccc1 [eCF533]",
    "answerLabel": "true"
  },
  {
    "compound": "Cc1ccc(-c2nn(CCN3CCC(CCN(C)C)CC3)c3ncnc(N)c23)cc1 [eCF113]",
    "answerLabel": "true"
  },
  {
    "compound": "CNc1ncc2c(-c3ccc(N4CCNCC4)nc3)nn(Cc3cn(-c4ccc(Cl)cc4)nn3)c2n1 [eSM143]",
    "answerLabel": "true"
  },
  {
    "compound": "Cc1ccc(-c2nn(CCN3CCC(N(C)C)CC3)c3ncnc(N)c23)cc1 [eCF109]",
    "answerLabel": "false"
  },
  {
    "compound": "CNc1ncc2c(-c3ccc(OC)c(OC)c3)nn(CC3CCCC3)c2n1 [eSM104]",
    "answerLabel": "true"
  }
]

###

# Tested on: T98 cells
# measurementNotes: Cell viability assay (PrestoBlue, 5 d) in T98 glioma cells
# Type: cell-based
# assaySetup: library screen, 5 d treatment, mean of three independent experiments in triplicates, read-out: EC50 T98 ± SEM
EC50 for assorted molecules

[
  {
    "molecule": "COc1cc(-c2nn(CCN3CCC(N4CCCC4)CC3)c3ncnc(N)c23)ccc1NC(=O)OC(C)(C)C [eCF518]",
    "EC50": "3.48 µM"
  },
  {
    "molecule": "COc1cc(-c2nn(CCN3CCCC(N(C)C)C3)c3ncnc(N)c23)ccc1NC(=O)OC(C)(C)C (stereo not drawn) [eCF603]",
    "EC50": "> 30 µM"
  },
  {
    "molecule": "CCNc1ncc2c(-c3ccc(N4CCNCC4)nc3)nn(CC3OCCO3)c2n1 [eSM133]",
    "EC50": "15.6 µM"
  },
  {
    "molecule": "CNc1ncc2c(-c3ccc(-c4ccccc4)cc3)nn(CC3OCCO3)c2n1 [eSM111]",
    "EC50": "> 30 µM"
  },
  {
    "molecule": "COc1cc(-c2nn(CCN3CCC(N(C)C)CC3)c3ncnc(N)c23)ccc1NC(=O)Oc1ccccc1 [eCF535]",
    "EC50": "16.7 µM"
  },
  {
    "molecule": "COc1cc(-c2nn(CCN3CCC(N(C)C)CC3)c3ncnc(N)c23)ccc1NC(=O)NC(C)(C)C [eCF540]",
    "EC50": "24.8 µM"
  },
  {
    "molecule": "CNc1ncc2c(-c3ccc(N4CCN(C)CC4)nc3)nn(CC3CCCC3)c2n1 [eSM157]",
    "EC50": "1.71 µM"
  },
  {
    "molecule": "CN(C)CC1CCN(CCn2nc(-c3ccc4ncccc4c3)c3c(N)ncnc32)CC1 [eCF223]",
    "EC50": "> 30 µM"
  },
  {
    "molecule": "CCOC(Cn1nc(-c2cccc(C(N)=O)c2)c2c(N)ncnc21)OCC [eCF208]",
    "EC50": "> 30 µM"
  },
  {
    "molecule": "COc1cc(-c2nn(CCN3CCC(N(C)C)CC3)c3ncnc(N)c23)ccc1NC(=O)CC(C)(C)C [eCF526]",
    "EC50": "> 30 µM"
  },
  {
    "molecule": "CN(C)C1CCN(CCn2nc(-c3cccc(NC(=O)OC(C)(C)C)c3)c3c(N)ncnc32)CC1 [eCF542]",
    "EC50": "> 30 µM"
  },
  {
    "molecule": "CCOC(Cn1nc(-c2ccoc2)c2c(N)ncnc21)OCC [eCF206]",
    "EC50": "> 30 µM"
  },
  {
    "molecule": "Cc1ccc(-c2nn(CCN3CCC(CO)CC3)c3ncnc(N)c23)cc1 [eCF107]",
    "EC50": "> 30 µM"
  },
  {
    "molecule": "CNc1ncc2c(-c3ccc(N4CCNCC4)nc3)nn(CC3CCCC3)c2n1 [eSM107]",
    "EC50": "2.42 µM"
  },
  {
    "molecule": "CN(C)CC1CCN(CCn2nc(-c3cccc(O)c3)c3c(N)ncnc32)CC1 [eCF225]",
    "EC50": "> 30 µM"
  },
  {
    "molecule": "CN(C)C1CCN(CCn2nc(-c3ccc(CC#N)cc3)c3c(N)ncnc32)CC1 [eCF600]",
    "EC50": "> 30 µM"
  },
  {
    "molecule": "Nc1ncc(-c2ccc(-c3nn(CC4CCCC4)c4ncnc(N)c34)cc2)o1 [eCF341]",
    "EC50": "26.2 µM"
  },
  {
    "molecule": "COc1ccc(-c2nn(CCN3CCC(N(C)C)CC3)c3ncnc(N)c23)cc1NC(=O)OC(C)(C)C [eCF558]",
    "EC50": "> 30 µM"
  }
]
